- Tested on: Platelet Aggregation Induced by PAF (platelet rich plasma)
- testDetails: Inhibition of Platelet Aggregation Induced by PAF
- Assay type: cell-based, male New Zealand rabbits
- conditionParameters: rabbit platelet rich plasma; aggregation induced by C18-PAF (15 nM)
Below, each of the compounds is paired with its reported IC50 value.
Number only, in nM; omit the unit.

> print(dat)
                                   compound  measuredvalue
1  Cc1nc2cnccc2n1CC1CCN(C(=O)/C=C(\c2ccccc2)c2ccc(N)cc2)CC1 [Compound 17b]              5

Inquiry: # lookup: IC50 of Cc1nc2cnccc2n1CC1CCN(C(=O)/C=C(/c2ccccc2)c2ccc(N)cc2)CC1 [Compound 17a]
Reply text: 18
